target: HPK1 (Homo sapiens, UniProt Q92918); assay: SLP76 phosphorylation assay (intracellular HPK1 inhibitory activity, p-SLP76 S376 ELISA in Jurkat cells); conditions: p-SLP76 IC50, Jurkat, Clone E6-1 cells; 1 h compound pre-incubation; anti-CD3 beads stimulation 20 min; Phospho-SLP-76 (Ser376) ELISA
Sequence (Q92918 whole entry): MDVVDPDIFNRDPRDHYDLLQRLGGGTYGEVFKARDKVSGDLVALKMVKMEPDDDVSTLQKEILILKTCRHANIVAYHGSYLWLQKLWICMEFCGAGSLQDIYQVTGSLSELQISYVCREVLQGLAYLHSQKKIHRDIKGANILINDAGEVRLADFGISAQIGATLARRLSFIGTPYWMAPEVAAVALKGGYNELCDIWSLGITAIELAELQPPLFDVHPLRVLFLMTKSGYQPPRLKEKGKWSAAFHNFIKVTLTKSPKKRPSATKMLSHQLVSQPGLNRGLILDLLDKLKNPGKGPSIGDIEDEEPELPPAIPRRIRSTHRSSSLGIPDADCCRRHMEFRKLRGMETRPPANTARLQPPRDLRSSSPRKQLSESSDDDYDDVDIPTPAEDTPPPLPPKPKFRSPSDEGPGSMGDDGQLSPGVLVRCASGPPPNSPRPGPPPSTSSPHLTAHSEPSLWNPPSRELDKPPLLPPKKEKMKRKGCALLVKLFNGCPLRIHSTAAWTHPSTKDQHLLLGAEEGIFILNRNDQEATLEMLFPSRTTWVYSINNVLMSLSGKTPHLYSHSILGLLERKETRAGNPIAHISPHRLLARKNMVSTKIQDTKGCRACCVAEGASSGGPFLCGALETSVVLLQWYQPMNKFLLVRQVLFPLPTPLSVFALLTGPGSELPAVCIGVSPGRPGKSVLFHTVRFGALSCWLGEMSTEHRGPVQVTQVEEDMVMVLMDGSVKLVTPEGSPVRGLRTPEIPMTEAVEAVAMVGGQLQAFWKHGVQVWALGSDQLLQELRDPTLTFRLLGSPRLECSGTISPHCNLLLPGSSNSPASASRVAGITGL
parameter: IC50 (µM)

O=C(N1CCc2cc(-c3cnc4[nH]cc(C(F)(F)F)c4n3)cc([C@@H]3COCCN3)c2C1)N1CC2CCC(C1)O2
0.0629

(1) Cc1c[nH]c2ncc(-c3cc4c(c([C@@H]5COCCN5)c3)CN(C(=O)N3C[C@@H](C)O[C@@H](C)C3)CC4)cc12
(2) Cc1c[nH]c2ncc(-c3cc4c(c([C@@H]5CCCN5)c3)CN(C(=O)[C@@H](O)c3cccnc3)CC4)cc12 (single isomer, unassigned)
INPUT: Which of these two has the smaller recorded IC50: 1 or 2 ? Returns: label corresponding to the selected item.
OUTPUT: 1

----------
Target: UniProt Q92918
Sequence (Q92918 1-346): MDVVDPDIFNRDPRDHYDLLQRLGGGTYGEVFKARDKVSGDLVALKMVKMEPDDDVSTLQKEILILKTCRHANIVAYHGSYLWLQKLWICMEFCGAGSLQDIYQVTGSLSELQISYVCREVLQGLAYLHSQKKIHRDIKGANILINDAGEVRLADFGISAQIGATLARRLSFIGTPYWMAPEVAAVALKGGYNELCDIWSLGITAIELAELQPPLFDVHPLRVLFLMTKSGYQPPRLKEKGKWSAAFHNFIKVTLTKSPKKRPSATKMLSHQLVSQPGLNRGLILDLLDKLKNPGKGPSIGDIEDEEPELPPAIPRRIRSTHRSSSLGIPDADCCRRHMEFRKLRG
Assay: HPK1 kinase activity assay (ADP-Glo)
Conditions: HPK1 Kinase activity IC50, ADP-Glo; 1 nM HPK1, 10 μM ATP, 0.1 μg/μL MBP
pIC50: −log10 of the molar value.
parameter: pIC50

// worked examples, pIC50 included
Cc1c[nH]c2ncc(-c3cc4c(c([C@@H]5CCCN5)c3)CN(C(=O)N3CCOC(C(F)(F)F)C3)CC4)cc12 (single isomer, unassigned) [Compound Z490]
8.78
Cc1cc(CC(=O)N2CCc3c(cc(-c4cnc5[nH]cc(C)c5c4)cc3[C@@H]3CCCN3)C2)ccn1 [Compound Z333]
9.31

(A) CCC(=O)N1CCc2cc(-c3cnc4[nH]cc(C)c4c3)cc(C3CCCN3)c2C1 (stereo not shown) [Compound Z35]
(B) Cc1c[nH]c2ncc(-c3cc4c(c([C@@H]5COCCN5)c3)CCN(C(=O)C3CCOCC3)C4)cc12 [Compound Z377]
INPUT: Task for the reader: decide whether A or B has the larger pIC50. Indicate your choice by writing its label.
OUTPUT: B

----------
target: HPK1 (Homo sapiens, UniProt Q92918); assay: SLP76 phosphorylation assay (intracellular HPK1 inhibitory activity, p-SLP76 S376 ELISA in Jurkat cells); settings: p-SLP76 IC50, Jurkat, Clone E6-1 cells; 1 h compound pre-incubation; anti-CD3 beads stimulation 20 min; Phospho-SLP-76 (Ser376) ELISA
parameter: IC50 (nM)

Cc1c[nH]c2ncc(-c3cc4c(c([C@@H]5COCCN5)c3)CN(C(=O)N3CCOC5CC53)CC4)cc12 (stereo partly drawn) [Compound Z562]
147
CC(C)(O)C(=O)N1CCc2cc(-c3cnc4[nH]cc(Cl)c4n3)cc([C@@H]3COCCN3)c2C1 [Compound Z465]
144
Cc1c[nH]c2ncc(-c3cc4c(c([C@@H]5COCCN5)c3)CN(C(=O)C(C)(C)O)CC4)nc12 [Compound Z507]
119

----------
target: HPK1 (Homo sapiens, UniProt Q92918); assay: SLP76 phosphorylation assay (intracellular HPK1 inhibitory activity, p-SLP76 S376 ELISA in Jurkat cells); conditions: p-SLP76 IC50, Jurkat, Clone E6-1 cells; 1 h compound pre-incubation; anti-CD3 beads stimulation 20 min; Phospho-SLP-76 (Ser376) ELISA
parameter: IC50 (nM)

Consider the following illustrative entries.
C=Cc1c[nH]c2ncc(-c3cc4c(c([C@@H]5COCCN5)c3)CN(C(=O)C(C)(C)O)CC4)cc12 [Compound Z508]
304
CC(C)c1c[nH]c2ncc(-c3cc4c(c([C@@H]5COCCN5)c3)CN(C(=O)C(C)(C)O)CC4)nc12 [Compound Z541]
33.7

(a) CC(C)(O)C(=O)N1CCc2cc(-c3cnc4[nH]cc(C5CC5)c4c3)cc([C@@H]3COCCN3)c2C1 [Compound Z523]
(b) O=C(N1CCc2cc(-c3cnc4[nH]cc(Cl)c4c3)cc([C@@H]3COCCN3)c2C1)C1(O)CCOCC1 [Compound Z485]
INPUT: Field: lower IC50 | Options: a / b Write the label of whichever entry you select.
OUTPUT: a
(a: 51.8 nM, b: 126 nM)

----------
molecular target: HPK1 (Homo sapiens); assay: HPK1 kinase activity assay (ADP-Glo); settings: read-out: HPK1 Kinase activity IC50; ADP-Glo; 1 nM HPK1, 10 μM ATP, 0.1 μg/μL MBP
pIC50: −log10 of the molar value.
parameter: pIC50

(I) Cc1cn(C2CC2)nc1C(=O)N1CCc2cc(-c3cnc4[nH]cc(C)c4c3)cc([C@@H]3CCCN3)c2C1
(II) Cc1c[nH]c2ncc(-c3cc4c(c([C@@H]5CCCN5)c3)CN(C(=O)CC3CC3)CC4)cc12
INPUT: Which of these two has the smaller recorded pIC50: I or II ? Refer to your chosen item by its label in the answer.
OUTPUT: II

----------
target: HPK1 (Homo sapiens); experiment: SLP76 phosphorylation assay (intracellular HPK1 inhibitory activity, p-SLP76 S376 ELISA in Jurkat cells); settings: p-SLP76 IC50, Jurkat, Clone E6-1 cells; 1 h compound pre-incubation; anti-CD3 beads stimulation 20 min; Phospho-SLP-76 (Ser376) ELISA
parameter: IC50 (nM)

Solved cases (5 shown):
CCc1c[nH]c2ncc(-c3cc4c(c([C@@H]5COCCN5)c3)CN(C(=O)c3cnc(C)nc3)CC4)nc12
229
Cc1c[nH]c2ncc(-c3cc4c(c([C@@H]5COCCN5)c3)CN(C(=O)N3CCC(F)CC3)CC4)nc12
81.8
Cc1c[nH]c2ncc(-c3cc4c(c([C@@H]5COCCN5)c3)CN(C(=O)N3CC5CC(C3)O5)CC4)cc12
161
CCc1c[nH]c2ncc(-c3cc4c(c([C@@H]5COCCN5)c3)CN(C(=O)C(C)(C)O)CC4)nc12
524
Cc1c[nH]c2ncc(-c3cc4c(c([C@@H]5CCCN5)c3)CN(C(=O)N3CCOC(C(F)(F)F)C3)CC4)cc12 (single isomer, unassigned) [Compound Z490]
430

(a) COc1c[nH]c2ncc(-c3cc4c(c([C@@H]5COCCN5)c3)CN(C(=O)C(C)(C)O)CC4)cc12
(b) Cc1c[nH]c2ncc(-c3cc4c(c([C@@H]5COCCN5)c3)CN(C(=O)C(C)(C)O)CC4)cc12
INPUT: Of a and b , whose reported IC50 is the larger number? Give the label under which the chosen entry appears.
OUTPUT: a
(a: 188 nM, b: 106 nM)

----------
biological target: HPK1 (Homo sapiens, UniProt Q92918); test: HPK1 kinase activity assay (ADP-Glo); settings: HPK1 Kinase activity IC50, ADP-Glo; 1 nM HPK1, 10 μM ATP, 0.1 μg/μL MBP
parameter: IC50 (pM)

Worked set:
O=C(N1CCc2cc(-c3cnc4[nH]cc(C(F)(F)F)c4c3)cc([C@@H]3COCCN3)c2C1)N1C2CCC1COC2
370
CC(C)c1c[nH]c2ncc(-c3cc4c(c([C@@H]5COCCN5)c3)CN(C(=O)C(C)(C)O)CC4)cc12
110
Cc1c[nH]c2ncc(-c3cc4c(c([C@@H]5CCCN5)c3)CN(C(=O)N3CCOC(C(F)(F)F)C3)CC4)cc12 (single isomer, unassigned) [Compound Z491]
1290
Cc1c[nH]c2ncc(-c3cc4c(c([C@@H]5COCCN5)c3)CN(C(=O)N3C[C@H]5C[C@@H]3CO5)CC4)cc12
220

(1) Cc1c[nH]c2ncc(-c3cc4c(c([C@@H]5COCCN5)c3)CN(C(=O)N3C5CCC3COC5)CC4)nc12
(2) Cc1c[nH]c2ncc(-c3cc4c(c([C@@H]5COCCN5)c3)CN(C(=O)N3CC(O)CC3(C)C)CC4)cc12 (stereo partly drawn)
INPUT: Between item 1 and item 2 , which reported IC50 is smaller? In your reply, give the label of the chosen option.
OUTPUT: 1

----------
molecular target: HPK1 (Homo sapiens); assay: SLP76 phosphorylation assay (intracellular HPK1 inhibitory activity, p-SLP76 S376 ELISA in Jurkat cells); conditions: p-SLP76 IC50, Jurkat, Clone E6-1 cells; 1 h compound pre-incubation; anti-CD3 beads stimulation 20 min; Phospho-SLP-76 (Ser376) ELISA
parameter: IC50 (µM)

Below: 3 compounds and their reported IC50.
Cc1c[nH]c2ncc(-c3cc4c(c([C@@H]5COCCN5)c3)CN(C(=O)C3CCOCC3)CC4)cc12
0.258
Cc1c[nH]c2ncc(-c3cc4c(c([C@@H]5COCCN5)c3)CN(C(=O)[C@H]3CCOC3)CC4)cc12
0.125
C[C@@H]1CN(C(=O)N2CCc3cc(-c4cnc5[nH]cc(Cl)c5c4)cc([C@@H]4COCCN4)c3C2)C[C@@H](C)O1
0.184

(a) Cc1c[nH]c2ncc(-c3cc4c(c([C@@H]5CCCN5)c3)CN(C(=O)c3ccn(C5CC5)n3)CC4)cc12
(b) Cc1c[nH]c2ncc(-c3cc4c(c([C@@H]5CCCN5)c3)CN(C(=O)c3cc(C5CC5)nn3C)CC4)cc12
(c) CCc1c(Cl)[nH]c2ncc(-c3cc4c(c([C@@H]5COCCN5)c3)CN(C(=O)N3CC5CCC(C3)O5)CC4)cc12
(d) Cc1c[nH]c2ncc(-c3cc4c(c([C@@H]5COCCN5)c3)CN(CC3(O)CCOCC3)CC4)cc12
(e) Cc1c[nH]c2ncc(-c3cc4c(c([C@@H]5COCCN5)c3)CN(C(=O)N3C5CCC3COC5)CC4)nc12
INPUT: # desc sort on IC50 across 5 compounds List the labels according to the requested ordering.
OUTPUT: d, a, b, c, e
(d: 1.05 µM, a: 0.453 µM, b: 0.295 µM, c: 0.134 µM, e: 0.0319 µM)

(I) O=C(N1CCc2cc(-c3cnc4[nH]cc(Cl)c4n3)cc([C@@H]3COCCN3)c2C1)N1C[C@H]2CC[C@@H]1CO2 (single isomer, unassigned)
(II) O=C(N1CCc2cc(-c3cnc4[nH]cc(C(F)(F)F)c4c3)cc([C@@H]3COCCN3)c2C1)N1C2CCC1COC2
INPUT: Thinking about recorded IC50 values, which is higher, I or II ? Pick one and reply with its label.
OUTPUT: I
